- test-target: Vitamin D3 receptor (Homo sapiens)
- study-conditions: HOS
- Description: Agonist activity at human VDR expressed in human HOS cells co-transfected with RXR gene assessed as osteocalcin promoter gene transactivation after 24 hrs by luciferase assay
# note: exactly 900 pM is not below, so it is false (0); use true (1) for ED50 strictly under it

Here are 4 compounds together with their reported answers.
>  <cpd-smiles>
CC1=C(/C=C\C2=CCC[C@@]3(C)[C@@H]2CC[C@@H]3[C@H](C)CCCC(C)(C)O)C[C@@H](O)[C@H](OCCCO)[C@@H]1O

>  <test-target>
Vitamin D3 receptor (Homo sapiens)

>  <label-value>
false (0)

$$$$
>  <cpd-smiles>
CCCC[C@H]1[C@H](O)CC(/C=C\C2=CCC[C@@]3(C)[C@@H]2CC[C@@H]3[C@H](C)CCCC(C)(C)O)=C(C)[C@H]1O

>  <test-target>
Vitamin D3 receptor (Homo sapiens)

>  <label-value>
false (0)

$$$$
>  <cpd-smiles>
CC1=C(/C=C\C2=CCC[C@@]3(C)[C@@H]2CC[C@@H]3[C@H](C)CCCC(C)(C)O)C[C@@H](O)[C@H](CCCO)[C@@H]1O

>  <test-target>
Vitamin D3 receptor (Homo sapiens)

>  <label-value>
true (1)

$$$$
>  <cpd-smiles>
CC1=C(/C=C\C2=CCC[C@@]3(C)[C@@H]2CC[C@@H]3[C@H](C)CCCC(C)(C)O)C[C@@H](O)[C@H](Cc2ccccc2)[C@@H]1O

>  <test-target>
Vitamin D3 receptor (Homo sapiens)

>  <label-value>
false (0)

$$$$

(Q) For CC1=C(/C=C\C2=CCC[C@@]3(C)[C@@H]2CC[C@@H]3[C@H](C)CCCC(C)(C)O)C[C@@H](O)[C@H](C)[C@@H]1O , is the recorded ED50 below the cut-off of 900 pM?
(A) true (1)
